# STUDY_TARGET: HLA-DR molecule DRB5*0101 (DR2w2a) (human)
# PROTOCOL_DESCRIPTION: inhibition of radiolabelled probe peptide binding to purified MHC class II
MEASUREMENT_NAME: pIC50
Just so you know, pIC50 here is -log10 of the concentration in molar units; reply with that number alone.

For GLRSLTTLLGALGAQ [EPO 101 analog peptide GLRSLTTLLGALGAQ (SEQ ID NO: 194)] , what is its reported pIC50?
6.53

For GLRSLTTRLRALGAQ [EPO 101 analog peptide GLRSLTTRLRALGAQ (SEQ ID NO: 192)] , what is its reported pIC50?
7.89

Just for reference, patent US20070184519A1 is where these values come from.
